# ASSAYED_TARGET: pseudo-kinase domain (JH2, amino-acids 536-812) of human Wild Type JAK2 (Homo sapiens, UniProt O60674, F794H/W659A/W777A)
# Construct: pseudo-kinase domain (JH2, amino-acids 536-812 with 3 surface mutations W659A, W777A, F794H)
# Sequence (O60674 536-812 W659A/W777A/F794H): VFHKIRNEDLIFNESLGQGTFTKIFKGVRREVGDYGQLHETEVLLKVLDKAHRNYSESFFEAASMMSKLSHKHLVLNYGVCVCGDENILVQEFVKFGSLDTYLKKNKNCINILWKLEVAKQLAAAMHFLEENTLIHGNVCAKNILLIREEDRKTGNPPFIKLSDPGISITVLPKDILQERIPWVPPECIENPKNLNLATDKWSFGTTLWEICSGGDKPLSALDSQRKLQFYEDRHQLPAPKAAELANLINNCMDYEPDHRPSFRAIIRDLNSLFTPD
# ASSAY_PROCEDURE: JAK2 LanthaScreen JH2-WT Binding Assay
# EXPERIMENTAL_CONTEXT: 1 hour at 25° C.
Counter-ions that a name gives are not always drawn.
Provide the reported IC50 of each item.

Some compounds with recorded IC50:
CN1C(=O)C2(CCN(C3(CC#N)CCC3)CC2)c2c1cnc1[nH]c(-c3cnn(C)c3)c(-c3ccc4c(cnn4C)c3)c21 [Example 31, trifluoroacetate salt]; ≤ 100 nM
COC(=O)NC1CC(CC#N)(N2CCC3(CC2)C(=O)N(C)c2cnc4[nH]c(-c5cnn(C)c5)c(-c5ccccc5)c4c23)C1 (single isomer, unassigned) [Example 27]; ≤ 100 nM
O=C(O)C(F)(F)F.[2H]C([2H])([2H])n1ccc2cc(-c3c(-c4cnn(CCOC)c4)[nH]c4ncc5c(c34)C3(CCN(C4(CC#N)CCC4)CC3)C(=O)N5C)ccc21 [Example 46]; ≤ 100 nM
CN1C(=O)C2(CCN(C3(CC#N)CCC3)CC2)c2c1cnc1[nH]c(-c3cn(C)nc3C3CC3)c(-c3ccc4c(cnn4C)c3)c21 [Example 40, trifluoroacetate salt]; ≤ 100 nM

Hi there! I need IC50 for each item below, if you can.
1. COC(=O)N1CCC(CC#N)(N2CCC3(CC2)C(=O)N(C)c2cnc4[nH]c(-c5cnn(C)c5)c(-c5ccc6c(cnn6C)c5)c4c23)CC1 [Example 81]
2. CN1C(=O)C2(CCN(C3(CC#N)CCC3)CC2)c2c1cnc1[nH]c(-c3cnn4c3CCCC4)c(-c3ccc4c(cnn4C)c3)c21 [Example 43]

1. ≤ 100 nM
2. ≤ 100 nM

###

# ASSAYED_TARGET: pseudo-kinase domain (JH2, amino-acids 536-812) of human Wild Type JAK2 (Homo sapiens, UniProt O60674, F794H/W659A/W777A)
# Construct: pseudo-kinase domain (JH2, amino-acids 536-812 with 3 surface mutations W659A, W777A, F794H)
# ASSAY_PROCEDURE: JAK2 LanthaScreen JH2-WT Binding Assay
# EXPERIMENTAL_CONTEXT: 1 hour at 25° C.
pIC50: −log10 of the molar value. Where a name gives a salt, the structure may show the parent alone.
MEASUREMENT_NAME: pIC50

Some compounds with recorded pIC50:
CN1C(=O)C2(CCN(C(=O)CC3CCOCC3)C2)c2c1cnc1[nH]c(-c3ccc(CN4CCC(S(C)(=O)=O)CC4)cc3)c(-c3ccccc3)c21 (racemic) [Example 12, trifluoroacetate salt]; 6.30 to 7.00
O=C(O)C(F)(F)F.[2H]C([2H])([2H])n1ccc(-c2[nH]c3ncc4c(c3c2-c2ccc3c(cnn3C([2H])([2H])[2H])c2)C2(CC3(CCN(C(=O)CCC)CC3)C2)C(=O)N4C)c1; ≥ 7.00
CN1C(=O)C2(CCN(C3(CC#N)CCC3)CC2)c2c1cnc1[nH]c(-c3cnn(CCN4CCOCC4)c3)c(-c3ccc4c(cnn4C)c3)c21 [Example 38, trifluoroacetate salt]; ≥ 7.00
O=C(O)C(F)(F)F.[2H]C([2H])([2H])n1ncc2cc(-c3c(-c4ccc(CN5CCOCC5)cc4)[nH]c4ncc5c(c34)C3(CC4(CN(S(=O)(=O)CC)C4)C3)C(=O)N5C)ccc21; ≥ 7.00

Attention now turns to another entry.
Field request: pIC50 | item: CN1C(=O)C2(CCN(C3(CC#N)CCC3)CC2)c2c1cnc1[nH]c(-c3cnn(CC(C)(C)O)c3)c(-c3ccc(C4CC4)cc3)c21 [Example 49, trifluoroacetate salt]
≥ 7.00

###

# ASSAYED_TARGET: catalytic domain (JH1, amino acids 808-1132) of human JAK2 (Homo sapiens, UniProt O60674)
# Construct: catalytic domain (JH1, amino acids 808-1132) of human JAK2; His (N)
# Sequence (O60674 808-1132): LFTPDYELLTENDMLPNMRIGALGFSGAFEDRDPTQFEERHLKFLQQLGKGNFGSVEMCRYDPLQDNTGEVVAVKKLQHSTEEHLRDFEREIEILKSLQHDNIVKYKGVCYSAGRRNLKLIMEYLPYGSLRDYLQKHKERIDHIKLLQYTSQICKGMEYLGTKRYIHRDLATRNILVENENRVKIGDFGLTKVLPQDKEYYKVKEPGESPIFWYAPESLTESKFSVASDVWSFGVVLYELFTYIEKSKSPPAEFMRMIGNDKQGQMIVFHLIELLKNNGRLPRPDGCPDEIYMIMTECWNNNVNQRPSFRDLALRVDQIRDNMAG
# ASSAY_PROCEDURE: JAK2 HTRF Enzyme Activity Assay
# EXPERIMENTAL_CONTEXT: ATP 30 μM, read-out: ENZ 30UMATP
Structures can show the parent of a compound that is named as a salt.
MEASUREMENT_NAME: IC50

Some compounds with recorded IC50:
CN(C)C(=O)N1CCC2(CC1)CC1(C2)C(=O)N(C)c2cnc3[nH]c(-c4cnn(C)c4)c(-c4ccc5c(cnn5C)c4)c3c21 [Example 60, trifluoroacetate salt]; 1250 to 2500 nM
O=C(O)C(F)(F)F.[2H]C([2H])([2H])n1ncc2cc(-c3c(-c4ccc(CN5CCOCC5)cc4)[nH]c4ncc5c(c34)C3(CC4(CN(S(=O)(=O)CC)C4)C3)C(=O)N5C)ccc21 [Example 85]; 1250 to 2500 nM

Hi there! I need IC50 for each item below, if you can.
1. CO[C@H]1CC[C@@](CC#N)(N2CCC3(CC2)C(=O)N(C)c2cnc4[nH]c(-c5cnn(C)c5)c(-c5ccc6c(cnn6C)c5)c4c23)CC1 (single isomer, unassigned) [Example 75a]
2. CC(=O)N1CCC(N2CC3(C2)C(=O)N(C)c2cnc4[nH]c(-c5ccc(CN6CCC(S(C)(=O)=O)CC6)cc5)c(-c5ccccc5)c4c23)CC1 [Example 3]
3. Cc1ncc(-c2c(-c3cnn(C)c3)[nH]c3ncc4c(c23)C2(CCN(c3ccncn3)CC2)C(=O)N4C)s1 [Example 17, trifluoroacetate salt]

1. 100 to 500 nM
2. > 2500 nM
3. > 2500 nM

###

Provide the reported pIC50 of each item.
# ASSAYED_TARGET: catalytic domain (JH1, amino acids 808-1132) of human JAK2 (Homo sapiens)
# Construct: catalytic domain (JH1, amino acids 808-1132) of human JAK2; His (N)
# ASSAY_PROCEDURE: JAK2 HTRF Enzyme Activity Assay
# EXPERIMENTAL_CONTEXT: ATP 30 μM, read-out: ENZ 30UMATP
pIC50: −log10 of the molar value. Counter-ions that a name gives are not always drawn.

Some compounds with recorded pIC50:
CN1C(=O)C2(CCN(C3(CC#N)CCC3)CC2)c2c1cnc1[nH]c(-c3cnn(CC(C)(C)O)c3)c(-c3cc4cnccc4s3)c21 [Example 48, trifluoroacetate salt]; 6.30 to 7.00
CN1C(=O)C2(CCN(C3(CC#N)CCC3)CC2)c2c1cnc1[nH]c(-c3cnn(CC(C)(C)O)c3)c(-c3ccc(C4CC4)cc3)c21 [Example 49, trifluoroacetate salt]; < 5.60
CN1C(=O)C2(CCN(C3(CC#N)CCC3)CC2)c2c1cnc1[nH]c(-c3cnn(C(C)(C)CO)c3)c(-c3ccc4c(cnn4C)c3)c21 [Example 37, trifluoroacetate salt]; 6.30 to 7.00
CN1C(=O)C2(CCCC2)c2c1cnc1[nH]c(C3CC3)c(-c3ccc4c(cnn4C)c3)c21 [Example 9, trifluoroacetate salt]; < 5.60

Attention now turns to another entry.
Field request: pIC50 | item: CN1C(=O)C2(CC3CCC(C2)N3c2ccncn2)c2c1cnc1[nH]c(-c3ccc(CN4CCC(S(C)(=O)=O)CC4)cc3)c(-c3ccccc3)c21 (centres unmarked) [Example 16, trifluoroacetate salt]
< 5.60

###

Provide the reported pIC50 of each item.
# ASSAYED_TARGET: catalytic domain (JH1, amino acids 808-1132) of human JAK2 (Homo sapiens)
# Construct: catalytic domain (JH1, amino acids 808-1132) of human JAK2; His (N)
# ASSAY_PROCEDURE: JAK2 HTRF Enzyme Activity Assay
# EXPERIMENTAL_CONTEXT: ATP 30 μM, read-out: ENZ 30UMATP
# Protocol: Example D. JAK2 HTRF Enzyme Activity Assay JAK2 enzyme activity assays utilize catalytic domain (JH1, amino acids 808-1132) of human JAK2 expressed as N-terminal His-tagged protein in a baculovirus expression system (BPS Bioscience, Catalog #40450). The assays was conducted in black 384-well polystyrene plates in a final reaction volume of 20 μL. […] HTRF signals were read after 30 minutes incubation at room temperature on a PHERAstar FS plate reader (BMG LABTECH). […]
pIC50: −log10 of the molar value. Counter-ions that a name gives are not always drawn.

Some compounds with recorded pIC50:
CCS(=O)(=O)N1CC2(C1)CC1(C2)C(=O)N(C)c2cnc3[nH]c(-c4cnn5c4CCC5)c(-c4ccc5c(cnn5C)c4)c3c21 [Example 94, trifluoroacetate salt]; < 5.60
CCc1c(-c2cnn(C)c2)[nH]c2ncc3c(c12)C1(CCN(c2ccncn2)CC1)C(=O)N3C [Example 19, trifluoroacetate salt]; 5.60 to 5.90
CN1C(=O)[C@]2(CCN(CC3(CC#N)CC3)C2)c2c1cnc1[nH]c(-c3cnn(C)c3)c(-c3ccc4c(cnn4C)c3)c21 (single isomer, unassigned) [Example 65]; < 5.60
CN1C(=O)C2(CCCC2)c2c1cnc1[nH]c(-c3cnn(Cc4ccncc4)c3)c(-c3ccc4c(cnn4C)c3)c21 [Example 8, trifluoroacetate salt]; < 5.60
[2H]C([2H])([2H])n1ncc2cc(-c3c(-c4cnn(C)c4)[nH]c4ncc5c(c34)C3(CCN([C@@](C)(CC#N)COC)CC3)C(=O)N5C)ccc21 (single isomer, unassigned) [Example 80b]; 5.90 to 6.30

Hi there! I need pIC50 for each item below, if you can.
1. COCCn1cc(-c2[nH]c3ncc4c(c3c2-c2ccc3c(cnn3C)c2)C2(CCN(C3(CC#N)CCC3)CC2)C(=O)N4C)cn1 [Example 36, trifluoroacetate salt]
2. CC(CC#N)n1cc(-c2ccc(-c3c(-c4cnn(C)c4)[nH]c4ncc5c(c34)C3(CCCC3)C(=O)N5C)cc2)cn1 (racemic) [Example 14, trifluoroacetate salt]
3. [2H]C([2H])([2H])n1cc(-c2[nH]c3ncc4c(c3c2-c2ccc3c(cnn3C)c2)C2(CCN(CCC#N)CC2)C(=O)N4C)cn1 [Example 7]
4. CN1C(=O)C2(CCN(C3(CC#N)CCC3)CC2)c2c1cnc1[nH]c(-c3cnn(C)c3)c(-c3ccc4c(cnn4C)c3)c21 [Example 31, trifluoroacetate salt]
5. COc1cccc(NC(=O)N2CCC3(CC2)C(=O)N(C)c2cnc4[nH]c(-c5ccc(CN6CCC(S(C)(=O)=O)CC6)cc5)c(-c5ccccc5)c4c23)c1 [Example 21, trifluoroacetate salt]
6. CN1C(=O)C2(CCN(C3(C)CCS(=O)(=O)C3)CC2)c2c1cnc1[nH]c(-c3cnn(C)c3)c(-c3ccc4c(cnn4C)c3)c21 (racemic) [Example 78]
7. CN1C(=O)C2(CCCCC2)c2c1cnc1[nH]c(-c3ccc(CN4CCC(S(C)(=O)=O)CC4)cc3)c(-c3ccccc3)c21 [Example 11, trifluoroacetate salt]

6.30 to 7.00
< 5.60
5.60 to 5.90
6.30 to 7.00
< 5.60
5.90 to 6.30
< 5.60
